- system-name: KRAS G12C/SOS/c-Raf complex (Homo sapiens, UniProt P01116, G12C)
- Construct: Biotinylated AviTag-KRAS G12C (amino acid region 1-185, GDP)
- Sequence (P01116 1-185 isoform P01116-2 G12C, one chain of several): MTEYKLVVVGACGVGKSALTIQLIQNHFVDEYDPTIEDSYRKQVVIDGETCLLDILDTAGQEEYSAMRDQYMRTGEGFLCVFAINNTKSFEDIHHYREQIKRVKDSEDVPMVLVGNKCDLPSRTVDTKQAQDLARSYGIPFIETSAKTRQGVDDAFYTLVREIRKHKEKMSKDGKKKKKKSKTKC
- test: KRAS G12C/SOS/c-Raf complex formation inhibitory action (TR-FRET)
- test-context: one hour at room temperature, read-out: IC50 (KRAS G12C/SOS/c-Raf complex formation inhibition)

{"columns": ["compound", "IC50 (nM)"],
 "data": [
  ["C=CC(=O)N1CC2(CCN(c3nc(OC4CCN(CCOC)CC4)nc4c(OCC(F)(F)F)c(-c5c(C)ccc6[nH]ncc56)c(C5CC5)cc34)CC2)C1 [Ex 25]", 48],
  ["C=CC(=O)N1CC2(CCN(c3nc(OC4CCN(CCC(F)(F)F)CC4)nc4c(OCC(F)(F)F)c(-c5c(C)ccc6[nH]ncc56)c(C=C)cc34)CC2)C1 [Example 60]", 98],
  ["C=CC(=O)N1CC2(CCN(c3nc(OC4CCN(CCCOC)CC4)nc4c(OCC(F)(F)F)c(-c5c(C)ccc6[nH]ncc56)c(C5CC5)cc34)CC2)C1 [Ex 38]", 15],
  ["C=CC(=O)N1CC2(CCN(c3nc(OC4CCN(C(=O)OC)CC4)nc4c(OCC(F)(F)F)c(-c5c(C)ccc6[nH]ncc56)c(C=C)cc34)CC2)C1 [Example 88]", 148],
  ["C=CC(=O)N1CC2(CCN(c3nc(OC4CCN(C)CC4)nc4c(OCc5cccc(OC)c5)c(-c5c(C)ccc6[nH]ncc56)c(C=C)cc34)CC2)C1 [Example 57]", 52],
  ["C=CC(=O)N1CC2(CCN(c3nc(N4CCCN(C)CC4)nc4c(OCC(F)(F)F)c(-c5c(C)ccc6[nH]ncc56)c(C=C)cc34)CC2)C1 [Example 76]", 43],
  ["C=CC(=O)N1CC2(CCN(c3nc(OC4CCN(S(C)(=O)=O)CC4)nc4c(OCC(F)(F)F)c(-c5c(C)ccc6[nH]ncc56)c(C=C)cc34)CC2)C1 [Example 86]", 72],
  ["C=CC(=O)N1CC2(CCN(c3nc(OC4CCN(CC)CC4)nc4c(OCC)c(-c5c(C)ccc6[nH]ncc56)c(C=C)cc34)CC2)C1 [Ex 7]", 33],
  ["C=CC(=O)N1CC2(CCN(c3nc(OC4CCN(C5CCOCC5)CC4)nc4c(OCC(F)(F)F)c(-c5c(C)ccc6[nH]ncc56)c(C=C)cc34)CC2)C1 [Ex 30]", 45],
  ["C=CC(=O)N1CC2(CCN(c3nc(OC4CCN(CCOC)CC4)nc4c(OCC)c(-c5c(C)ccc6[nH]ncc56)c(C=C)cc34)CC2)C1 [Example 13]", 37],
  ["C=CC(=O)N1CC2(CCN(c3nc(OC4CCN(C)CC4)nc4c(OCC(C)C)c(-c5c(C)ccc6[nH]ncc56)c(C=C)cc34)CC2)C1 [Example 74]", 50],
  ["C=CC(=O)N1CC2(CCN(c3nc(OC[C@@H]4CCCN4C)nc4c(OC5CCC5)c(-c5c(C)ccc6[nH]ncc56)c(C=C)cc34)CC2)C1 [Example 15]", 52],
  ["C=CC(=O)N1CC2(CCN(c3nc(OC4CCN(C)CC4)nc4c(OC5CCC5)c(-c5c(C)ccc6[nH]ncc56)c(C=C)cc34)CC2)C1 [Example 17]", 34],
  ["C=CC(=O)N1CC2(CCN(c3nc(OC4CCN(CCOC)CC4)nc4c(OCC(F)(F)F)c(-c5c(C)ccc6cn[nH]c56)c(C=C)cc34)CC2)C1 [Example 62]", 37],
  ["C=CC(=O)N1CC2(CCN(c3nc(CC4CCN(CCOC)CC4)nc4c(OCC(F)(F)F)c(-c5c(C)ccc6[nH]ncc56)c(C=C)cc34)CC2)C1 [Example 91]", 42],
  ["C=CC(=O)N1CC2(CCN(c3nc(OC4CCN(CC)CC4)nc4c(OC5CC(F)(F)C5)c(-c5c(C)ccc6[nH]ncc56)c(C=C)cc34)CC2)C1 [Example 11]", 38],
  ["C=CC(=O)N1CC2(CCN(c3nc(OC4CCN(C)CC4C)nc4c(OCC(F)(F)F)c(-c5c(C)ccc6[nH]ncc56)c(C=C)cc34)CC2)C1 (stereo not shown) [Example 48]", 54],
  ["C=CC(=O)N1CCN(c2nc(OC3CCN(C)CC3)nc3c(F)c(-c4c(C)ccc5[nH]ncc45)c(Cl)cc23)CC1 [Compound C, reference compound]", 68],
  ["C=CC(=O)N1CC2(CCN(c3nc(N4CCC(N(C)C)CC4)nc4c(OCC(F)(F)F)c(-c5c(C)ccc6[nH]ncc56)c(C=C)cc34)CC2)C1 [Example 42]", 44]
]}

Where do these numbers come from? They come from patent US10774082B2.
